test: Growth inhibition of human HMEC cells after 5 days by SRB assay; assay type: cell-based; details: HMEC cells
GI50 at 120 h values, listed per item
# output: bare number, implied unit µM

The examples below pair each entry with its known result.
{"Molecule": "CN(C)Cc1ccc(/C=C/c2n[nH]c3cc([C@@H]4C[C@@]45C(=O)N(C)c4ccccc45)ccc23)cc1", "Quantity Unit": "µM", "GI50 at 120 h": 8}
{"Molecule": "COc1ccc2c(c1)[C@]1(C[C@H]1c1ccc3c(/C=C/c4ccc([C@H](C)N5CCOCC5)cc4)n[nH]c3c1)C(=O)N2C", "Quantity Unit": "µM", "GI50 at 120 h": 9.6}
{"Molecule": "O=C1Nc2ccccc2[C@]12C[C@H]2c1ccc2c(/C=C/c3cccnc3)n[nH]c2c1", "Quantity Unit": "µM", "GI50 at 120 h": 4.4}
{"Molecule": "O=C1Nc2ccccc2[C@]12C[C@H]2c1ccc2c(/C=C/c3ccc(CN4CC[C@@H](F)C4)cc3)n[nH]c2c1", "Quantity Unit": "µM", "GI50 at 120 h": 7.9}
{"Molecule": "CN(C)Cc1ccc(/C=C/c2n[nH]c3cc([C@@H]4C[C@@]45C(=O)Nc4ccccc45)ccc23)cc1 (racemic)", "Quantity Unit": "µM", "GI50 at 120 h": 28}

Let me know recorded GI50 at 120 h for `O=C1Nc2ccccc2[C@]12C[C@H]2c1ccc2c(/C=C/c3ccc(CN4CCOCC4)cc3)n[nH]c2c1` , thanks.
50

Find the measured GI50 at 120 h of `COc1ccc2c(c1)[C@]1(C[C@H]1c1ccc3c(/C=C/c4ccc(CN(C)C)cc4)n[nH]c3c1)C(=O)N2` and report it.
41

Give GI50 at 120 h for the following molecule: `C[C@@H]1CN(Cc2ccc(/C=C/c3n[nH]c4cc([C@@H]5C[C@@]56C(=O)Nc5ccccc56)ccc34)cc2)C[C@H](C)O1`
8.4

Identify the reported GI50 at 120 h for the following entry. `COc1ccc2c(c1)[C@]1(C[C@H]1c1ccc3c(/C=C/c4ccc(CN5C[C@@H](C)O[C@@H](C)C5)cc4)n[nH]c3c1)C(=O)N2`
9

Using the record for `O=C1Nc2ccccc2[C@]12C[C@H]2c1ccc2c(/C=C/c3ccc(CN4CCCCC4)cc3)n[nH]c2c1` , state its measured GI50 at 120 h.
20

Note down GI50 at 120 h recorded for `O=C1Nc2ccccc2[C@]12C[C@H]2c1ccc2c(/C=C/c3ccc(N4CCNCC4)cc3)n[nH]c2c1`
21

Note GI50 at 120 h for the molecule shown: `COc1ccc2c(c1)[C@]1(C[C@H]1c1ccc3c(/C=C/c4ccc(CN5CCCCC5)cc4)n[nH]c3c1)C(=O)N2`
50

Quick one: give measured GI50 at 120 h for `Cc1ccc2c(c1)[C@]1(C[C@H]1c1ccc3c(/C=C/c4ccc(CN5CCOCC5)cc4)n[nH]c3c1)C(=O)N2`
9.3

Determine from records and report GI50 at 120 h for `O=C1Nc2ccccc2[C@]12C[C@H]2c1ccc2c(/C=C/c3cccc(CN4CCOCC4)c3)n[nH]c2c1`
50

* * *

test: AUC(infinity) in beagle dog at 1 mg/kg, iv; type: ADME, organism-based, Canis lupus familiaris; parameters: time infinity, dose 1 mg/kg, route intravenous; details: plasma
AUC(0-inf) less than 800 ng·h/mL is Met; AUC(0-inf) greater than or equal to 800 ng·h/mL is Not met.

{"Smiles Record": "C[C@@H]1CN(Cc2ccc(/C=C/c3n[nH]c4cc([C@@H]5C[C@@]56C(=O)Nc5ccccc56)ccc34)cc2)C[C@H](C)O1", "Category": "Not met"}

Check if AUC(0-inf) falls below 800 ng·h/mL for `COc1ccc2c(c1)[C@]1(C[C@H]1c1ccc3c(/C=C/c4ccc(CN5CCOCC5)cc4)n[nH]c3c1)C(=O)N2` .
Met

# check: AUC(0-inf) < 800 ng·h/mL for `O=C1Nc2ccccc2[C@]12C[C@H]2c1ccc2c(/C=C/c3ccc(CN4CCOCC4)cc3)n[nH]c2c1`
Met

Take the compound `COc1ccc2c(c1)[C@]1(C[C@H]1c1ccc3c(/C=C/c4ccc(CN5CCOCC5)cc4)n[nH]c3c1)C(=O)N2C` and say whether its AUC(0-inf) is less than 800 ng·h/mL.
Met

Dear colleague, could you confirm whether AUC(0-inf) of `COc1ccc2c(c1)[C@]1(C[C@H]1c1ccc3c(/C=C/c4ccc(CN5C[C@@H](C)O[C@@H](C)C5)cc4)n[nH]c3c1)C(=O)N2` falls below 800 ng·h/mL? Thanks.
Not met

* * *

assay: AUC in athymic CD1 nude mouse at 25 mg/kg, po by LC/MS/MS analysis; assay type: ADME, organism-based; set-up: dose 25 mg/kg, route oral; details: plasma
Quick reference for AUC among some compounds
Give just the numeric value; ng·h/mL need not be written.

{"Smiles Record": "C[C@@H]1CN(Cc2ccc(/C=C/c3n[nH]c4cc([C@@H]5C[C@@]56C(=O)Nc5ccccc56)ccc34)cc2)C[C@H](C)O1", "Value Kind": "AUC", "Recorded Value": 10000}
{"Smiles Record": "O=C1Nc2ccccc2[C@]12C[C@H]2c1ccc2c(/C=C/c3ccc(CN4CC[C@@H](F)C4)cc3)n[nH]c2c1", "Value Kind": "AUC", "Recorded Value": 1800}

Consider the compound `COc1ccc2c(c1)[C@]1(C[C@H]1c1ccc3c(/C=C/c4ccc([C@H](C)N5CCOCC5)cc4)n[nH]c3c1)C(=O)N2C` and give its recorded AUC.
16000

Determine from records and report AUC for `COc1ccc2c(c1)[C@]1(C[C@H]1c1ccc3c(/C=C/c4ccc(CN5CCCCC5)cc4)n[nH]c3c1)C(=O)N2`
1300

Hello, please tell me recorded AUC for this one: `CN1CCN(c2ccc(/C=C/c3n[nH]c4cc([C@@H]5C[C@@]56C(=O)N(C)c5ccccc56)ccc34)cn2)CC1`
1600

* * *

// values below are reported half-life
test: Half life in human liver microsomes; conditions: liver microsomes
Express your answer in min, writing the number without its unit.

{"Smiles Record": "O=C1Nc2ccccc2[C@]12C[C@H]2c1ccc2c(/C=C/c3ccc(CN4CC[C@@H](F)C4)cc3)n[nH]c2c1", "Recorded Value": 52}
{"Smiles Record": "O=C1Nc2ccccc2[C@]12C[C@H]2c1ccc2c(/C=C/c3ccc(CN4CCOCC4)cc3)n[nH]c2c1", "Recorded Value": 45}
{"Smiles Record": "COc1ccc2c(c1)[C@]1(C[C@H]1c1ccc3c(/C=C/c4ccc(N5CCN(C)CC5)nc4)n[nH]c3c1)C(=O)N2", "Recorded Value": 11}
{"Smiles Record": "Cc1ccc2c(c1)[C@]1(C[C@H]1c1ccc3c(/C=C/c4ccc(CN5CCOCC5)cc4)n[nH]c3c1)C(=O)N2", "Recorded Value": 56}
{"Smiles Record": "COc1ccc2c(c1)[C@]1(C[C@H]1c1ccc3c(/C=C/c4ccc(CN5CCOCC5)cc4)n[nH]c3c1)C(=O)N2", "Recorded Value": 41}
{"Smiles Record": "COc1ccc2c(c1)[C@]1(C[C@H]1c1ccc3c(/C=C/c4ccc(CN5CCCCC5)cc4)n[nH]c3c1)C(=O)N2", "Recorded Value": 49}

Provide half-life value for the following compound: `COc1ccc2c(c1)[C@]1(C[C@H]1c1ccc3c(/C=C/c4ccc(CN(C)C)cc4)n[nH]c3c1)C(=O)N2`
36

Retrieve half-life measured for `CN1CCN(c2ccc(/C=C/c3n[nH]c4cc([C@@H]5C[C@@]56C(=O)N(C)c5ccccc56)ccc34)cn2)CC1` and print it.
27

* * *

test: AUC(infinity) in beagle dog at 5 mg/kg, po; type: ADME, organism-based, Canis lupus familiaris; design: time infinity, dose 5 mg/kg, route oral; details: plasma
The compounds listed here are annotated with their AUC(0-inf).
# number only, unit ng·h/mL dropped from output

Observe how each entry below is paired with its result.
{"Compound": "Cc1ccc2c(c1)[C@]1(C[C@H]1c1ccc3c(/C=C/c4ccc(CN5CCOCC5)cc4)n[nH]c3c1)C(=O)N2", "Quantity Unit": "ng·h/mL", "AUC(0-inf)": 1140}
{"Compound": "C[C@@H]1CN(Cc2ccc(/C=C/c3n[nH]c4cc([C@@H]5C[C@@]56C(=O)Nc5ccccc56)ccc34)cc2)C[C@H](C)O1", "Quantity Unit": "ng·h/mL", "AUC(0-inf)": 4990}

Answer with the recorded AUC(0-inf) of `COc1ccc2c(c1)[C@]1(C[C@H]1c1ccc3c(/C=C/c4ccc(CN5CCOCC5)cc4)n[nH]c3c1)C(=O)N2C` only.
1030

Read off the recorded AUC(0-inf) for `O=C1Nc2ccccc2[C@]12C[C@H]2c1ccc2c(/C=C/c3ccc(CN4CCOCC4)cc3)n[nH]c2c1`
250

For the compound `COc1ccc2c(c1)[C@]1(C[C@H]1c1ccc3c(/C=C/c4ccc(CN5CCOCC5)cc4)n[nH]c3c1)C(=O)N2` , give its measured AUC(0-inf) value.
1420

// fetch AUC(0-inf) given entry COc1ccc2c(c1)[C@]1(C[C@H]1c1ccc3c(/C=C/c4ccc(CN5C[C@@H](C)O[C@@H](C)C5)cc4)n[nH]c3c1)C(=O)N2 [OCIFISERTIB]
3460
